Quick reference: MR (Molar Ratio) of the listed items.
Target: T1, recombinant Thermus thermophilus SlyD FKBP-Her3 (TtSlyD-FKBP-Her3)
T1 construct: expressed in E. coli, the N-terminal methionine can be present or not; also called thermo SlyD-Her3; T.T.SlyD-Her3
T1 chain: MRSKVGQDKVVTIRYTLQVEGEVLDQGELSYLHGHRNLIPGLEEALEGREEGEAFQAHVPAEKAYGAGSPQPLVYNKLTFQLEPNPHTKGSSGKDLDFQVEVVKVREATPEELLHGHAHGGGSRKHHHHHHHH
Experiment: SPR Biacore 4000 kinetic screening, antibody captured, analyte 150 nM, 25 C
parameter: MR (Molar Ratio)

{"binder": "anti-HER3 antibody M-46-01 (antibody, V domains shown, mouse hybridoma clone) VH: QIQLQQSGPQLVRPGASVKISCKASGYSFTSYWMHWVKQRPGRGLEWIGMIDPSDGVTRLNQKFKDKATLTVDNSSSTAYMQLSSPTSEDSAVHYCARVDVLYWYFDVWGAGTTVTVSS VL: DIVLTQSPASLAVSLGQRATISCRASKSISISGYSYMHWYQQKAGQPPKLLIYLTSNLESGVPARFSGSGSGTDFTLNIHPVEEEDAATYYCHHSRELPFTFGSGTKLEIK", "reported_measurement": 1.8}
{"binder": "anti-HER3 antibody M-08-11 (antibody, V domains shown, mouse monoclonal antibody from hybridoma, tested as hybridoma supernatant or as antibody; also called M-011) VH: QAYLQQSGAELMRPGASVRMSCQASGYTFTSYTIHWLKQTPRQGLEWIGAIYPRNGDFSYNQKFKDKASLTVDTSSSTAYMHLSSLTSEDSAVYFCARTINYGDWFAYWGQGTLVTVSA VL: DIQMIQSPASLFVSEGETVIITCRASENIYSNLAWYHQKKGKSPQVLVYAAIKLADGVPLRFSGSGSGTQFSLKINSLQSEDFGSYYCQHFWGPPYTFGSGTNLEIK", "reported_measurement": 1.3}
{"binder": "anti-HER3 antibody M-43-01 (antibody, V domains shown, mouse hybridoma clone) VH: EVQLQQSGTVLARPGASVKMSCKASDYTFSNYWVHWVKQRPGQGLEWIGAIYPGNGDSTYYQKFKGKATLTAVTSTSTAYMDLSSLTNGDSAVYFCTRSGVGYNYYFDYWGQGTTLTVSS VL: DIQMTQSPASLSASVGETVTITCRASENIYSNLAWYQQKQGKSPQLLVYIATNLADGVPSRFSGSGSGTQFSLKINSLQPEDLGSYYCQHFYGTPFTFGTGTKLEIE", "reported_measurement": 1.7}
{"binder": "anti-HER3 antibody M-17-02 (antibody, V domains shown, mouse hybridoma clone) VH: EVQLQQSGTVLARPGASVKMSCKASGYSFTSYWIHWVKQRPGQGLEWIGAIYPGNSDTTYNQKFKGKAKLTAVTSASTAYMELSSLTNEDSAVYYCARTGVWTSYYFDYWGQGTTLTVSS VL: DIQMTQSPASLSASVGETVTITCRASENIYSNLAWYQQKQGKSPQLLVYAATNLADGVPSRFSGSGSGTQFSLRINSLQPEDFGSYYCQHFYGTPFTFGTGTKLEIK", "reported_measurement": 1.7}

Source: patent US20180094062A1
